Measured inhibition, listed per entry.
test: HIF-2a reporter inhibitor retest, confirmation, luminescence, 786-0 RCC cells (AID 651580); settings: HIF-2a luciferase reporter luminescence, overnight, at 18.8 µM, stronger effect = higher value
The other results are listed elsewhere or left out.
Write it as a number; the unit % goes unstated.

The following compounds have reported results that may help.
compound: CCC(C)(O)C(=O)OC1C(=O)OC2CC3C(C)=CC(=O)C(O)C3(C)C3C4(O)OCC23C1C(C)C4O (centres undefined)
data value: 55.2
//
compound: CCCCCCCCCCCCn1ccc(=N)cc1
data value: 64
//
compound: CCOC(=O)[C@]12Cc3ccccc3[C@H]1N(C1CCCCC1)C(=O)c1cc(OC)ccc12
data value: 93.2

# evaluate next
Input line: What measured inhibition goes with `CC(=CCOc1ccc2ccc(=O)oc2c1)C1=CC(=O)C(C)(C)O1` ?
Output line: 44.2

====

Collected inhibition values appear next to each entry.
experiment: inhibition of Brca1/Bard1 split-luciferase complementation, confirmation, counter-screen for Mdm2/MdmX interaction inhibitor project, luminescence, single concentration (AID 504668); settings: Brca1/Bard1 bimolecular luciferase complementation counterscreen, at 8 µM, stronger effect = higher value
The source made the active and inactive calls. How the calls were made is not given here.

Guide cases for inhibition, answers given:
compound: CC(C)c1oc(=O)cc2c1[C@@H](O)[C@H]1OC(=O)[C@@]3(C)C[C@@H](O)[C@@H](O)[C@@]2(C)C13 (some centres undefined)
inhibition: 29.6% (active)
//
compound: CN(C)c1ccc(-[n+]2c(-c3ccccc3)cc(-c3ccccc3)cc2-c2ccccc2)cc1
inhibition: 23.3% (active)
//
compound: O=C(CSC1c2ccccc2-c2ccccc21)N/N=C/c1ccccc1O
inhibition: 27.7% (active)

Input line: I am curious: what inhibition value has been reported for C[C@@H]1O[C@@H](O[C@H]2C[C@@H](O)[C@]3(CO)[C@H]4[C@H](O)C[C@]5(C)[C@@H](C6COC(=O)C6)CC[C@]5(O)[C@@H]4CC[C@]3(O)C2)[C@H](O)[C@H](O)[C@H]1O (some centres undefined) ?
Output line: 26.8% (active)

====

biological target: PEG-3 (UniProt Q6IN02); assay: Peg3 promoter luciferase inhibitors, potency, dose response, cell-based, HeLa, CREF/GAPDH counter-screen panel (AID 624167); conditions: HeLa PEG-Prom luciferase reporter, overnight, CREF/GAPDH counter-screens; run 2, dose range 1, at 100 µM (top of the series)
Sequence (Q6IN02 whole entry, looked up): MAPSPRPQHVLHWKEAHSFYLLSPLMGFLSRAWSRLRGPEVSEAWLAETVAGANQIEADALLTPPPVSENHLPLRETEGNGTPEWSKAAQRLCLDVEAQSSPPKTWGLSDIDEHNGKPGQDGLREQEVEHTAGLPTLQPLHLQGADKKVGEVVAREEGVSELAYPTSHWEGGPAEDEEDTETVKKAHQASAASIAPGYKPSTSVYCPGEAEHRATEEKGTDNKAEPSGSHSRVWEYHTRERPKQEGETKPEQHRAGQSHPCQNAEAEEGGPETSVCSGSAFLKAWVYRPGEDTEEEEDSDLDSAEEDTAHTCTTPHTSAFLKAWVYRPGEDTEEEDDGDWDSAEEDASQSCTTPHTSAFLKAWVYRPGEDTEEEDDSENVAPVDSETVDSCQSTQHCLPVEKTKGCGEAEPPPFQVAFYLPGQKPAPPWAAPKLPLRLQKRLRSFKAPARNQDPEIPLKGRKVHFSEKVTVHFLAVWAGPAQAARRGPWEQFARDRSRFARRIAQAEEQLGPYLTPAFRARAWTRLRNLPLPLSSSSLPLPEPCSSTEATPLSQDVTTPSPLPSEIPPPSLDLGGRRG
parameter: inhibition (%)
Unit % implied. Number only.

compound: CCN(CCCl)c1cc(CN(C)C)cc(NC(=O)c2ccc(C(=O)Nc3cc(CN(C)C)cc(N(CC)CCCl)c3)cc2)c1
inhibition [%]: 101

compound: O=Cc1cn(Cc2cccc(F)c2)c2ccccc12
inhibition [%]: 75.9

compound: CC1(C)Cc2c(C#N)c(N3CCNCC3)nc(-c3ccco3)c2CS1
inhibition [%]: 101

Input line: Report inhibition for C[C@@H]1O[C@@H](O[C@@H]2C=C3CCC4C(CC[C@]5(C)[C@@H](c6ccc(=O)oc6)CC[C@]45O)[C@@]3(C)CC2)[C@H](O)[C@H](O)[C@H]1O (some centres undefined) please.
Output line: 98.5

Input line: Could you share which inhibition value was measured for `Cc1ccc(-c2cc(-c3ccc(C)cc3)[n+](-c3ccccc3)c(-c3ccc(C)cc3)c2)cc1` ?
Output line: 102

Input line: Return reported inhibition; argument: COc1ccc(C(c2nnnn2-c2c(C)cccc2C)N2CCC(n3c(=O)[nH]c4ccccc43)CC2)cc1 (centres undefined)
Output line: 63.1

Input line: What does the data say about its inhibition? Entry: `Cc1c(C(=O)N2CCC3(CC2)OCCO3)sc2ncnc(N3CCN(c4ccccn4)CC3)c12`
Output line: 102

Input line: inhibition lookup needed for CC1=CC(O)C(O)C2(C)C1CC1OC(=O)C(O)C3C(C)C(O)C4(O)OCC13C42 (centres undefined) , thanks.
Output line: 93.3

Input line: Given `Cc1ccc(S(=O)(=O)c2nc(-c3ccccc3Cl)oc2N(C)C2CCN(C)CC2)cc1` , state its recorded inhibition.
Output line: 101
